target-under-test: OGG1 (Homo sapiens (Human), UniProt O15527)
Sequence (O15527 whole entry): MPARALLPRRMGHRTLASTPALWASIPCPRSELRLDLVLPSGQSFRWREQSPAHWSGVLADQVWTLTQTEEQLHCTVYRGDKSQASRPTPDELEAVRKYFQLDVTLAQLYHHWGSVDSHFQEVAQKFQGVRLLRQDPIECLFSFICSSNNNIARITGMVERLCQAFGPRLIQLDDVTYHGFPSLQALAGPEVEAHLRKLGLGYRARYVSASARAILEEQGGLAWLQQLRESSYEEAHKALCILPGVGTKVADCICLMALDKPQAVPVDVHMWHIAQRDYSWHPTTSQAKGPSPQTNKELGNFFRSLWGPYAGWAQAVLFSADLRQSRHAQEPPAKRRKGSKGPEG
pIC50: −log10 of the molar value.
Threshold check on pIC50: at or above 7 gives 1 (yes), strictly below gives 0 (no).

Ask | Decide: is the reported value of pIC50 for O=C(Nc1ccc(Cl)c(F)c1)N1C2CCC1CC(n1c(=O)[nH]c3c(Br)cccc31)C2 (stereo not shown) equal to or greater than 7?
Reply | 1 (yes)

Ask | Decide: is the reported value of pIC50 for CCOc1cccc2c1[nH]c(=O)n2C1CCN(C(=O)Nc2ccc(I)cc2)CC1 equal to or greater than 7?
Reply | 0 (no)

Ask | Decide: is the reported value of pIC50 for COc1ccc(NC(=O)[C@H]2CC[C@@H](n3c(=O)[nH]c4c(Br)cccc43)CC2)cc1F equal to or greater than 7?
Reply | 1 (yes)

Ask | Decide: is the reported value of pIC50 for COc1cc(NC(=O)[C@H]2CC[C@@H](n3c(=O)[nH]c4c(N5CC[C@H](N(C)C)C5)cccc43)CC2)ccc1C equal to or greater than 7?
Reply | 1 (yes)

Ask | Decide: is the reported value of pIC50 for O=C(NCC(O)CO)c1cnn(-c2cccc3c2[nH]c(=O)n3C2CCN(C(=O)Nc3ccc(I)cc3)CC2)c1 (stereo not shown) equal to or greater than 7?
Reply | 0 (no)

Ask | Decide: is the reported value of pIC50 for CC1CC(n2c(=O)[nH]c3c(Br)cccc32)CCN1C(=O)Nc1ccc(Cl)c(Cl)c1 (stereo not shown) equal to or greater than 7?
Reply | 0 (no)

Ask | Decide: is the reported value of pIC50 for COc1cc(NC(=O)[C@H]2CC[C@@H](n3c(=O)[nH]c4c(N(C)CCN)cccc43)CC2)ccc1C equal to or greater than 7?
Reply | 1 (yes)

====

System: LCL#2
test-name: Cell viability assay (resazurin)
Type: cell-based
condition-details: 120 h, Normal, Epstein-Barr-virus-transformed lymphoblastoid cell lines, five day incubation
metric: pEC50
Field pEC50 (float): negative decimal logarithm of the concentration in molar.

Ask | Recorded pEC50 of O=C(Nc1ccc(I)cc1)N1CCC(n2c(=O)[nH]c3c(Br)cccc32)CC1 , please.
Reply | 4.60

Ask | Recorded pEC50 of Cc1cc(NC(=O)N2CCC(n3c(=O)[nH]c4c(Br)cccc43)CC2)ccc1I , please.
Reply | 4.49

Ask | Recorded pEC50 of O=C(Nc1ccc(Cl)c(Cl)c1)N1CCC(n2c(=O)[nH]c3c(-c4ccc(CO)nc4)cccc32)CC1 , please.
Reply | 4.39

====

Tested on: RFX393
test-name: Cell viability assay (resazurin)
Type: cell-based
condition-details: 120 h, Cancer, Renal cancer cell lines, five day incubation
metric: EC50 (µM)
Numbers only; they are read as µM.

Ask | Recorded EC50 of O=C(Nc1ccc(I)cc1)N1CCC(n2c(=O)[nH]c3c(Br)cccc32)CC1 , please.
Reply | 20

Ask | Recorded EC50 of Cc1cc(NC(=O)N2CCC(n3c(=O)[nH]c4c(Br)cccc43)CC2)ccc1I , please.
Reply | 12

Ask | Recorded EC50 of O=C(Nc1ccc(Cl)c(Cl)c1)N1CCC(n2c(=O)[nH]c3c(-c4ccc(CO)nc4)cccc32)CC1 , please.
Reply | 14

====

I'd appreciate it if you could supply EC50 values for the items below.
Test system: NB-4
test-name: Cell viability assay (resazurin)
Assay type: cell-based
condition-details: Homo sapiens, 120 h, Cancer, acute promyelocytic leukemia, five day incubation
Numbers only; they are read as µM.

Ask | Recorded EC50 of O=C(Nc1ccc(Cl)c(Cl)c1)N1CCC(n2c(=O)[nH]c3c(-c4ccc(CO)nc4)cccc32)CC1 , please.
Reply | 11

Ask | Recorded EC50 of O=C(Nc1ccc(I)cc1)N1CCC(n2c(=O)[nH]c3c(Br)cccc32)CC1 , please.
Reply | 5

====

I'd appreciate it if you could supply pEC50 values for the items below.
Test system: T98G
test-name: Cell viability assay (resazurin)
Type: cell-based
condition-details: Homo sapiens, 120 h, Cancer, Glioblastoma Multiforme, five day incubation
Experimental: A dilution series of compound or vehicle are transferred to 96-well plates. Cells are seeded into the plate (500-10,000 cells/well) in suitable media and incubated for five days in 5% CO2 at 37° C. […]
Field pEC50 (float): negative decimal logarithm of the concentration in molar.

Ask | Recorded pEC50 of Cc1cc(NC(=O)N2CCC(n3c(=O)[nH]c4c(Br)cccc43)CC2)ccc1I , please.
Reply | 4.77

Ask | Recorded pEC50 of O=C(Nc1ccc(I)cc1)N1CCC(n2c(=O)[nH]c3c(Br)cccc32)CC1 , please.
Reply | 4.85

Ask | Recorded pEC50 of O=C(Nc1ccc(Cl)c(Cl)c1)N1CCC(n2c(=O)[nH]c3c(-c4ccc(CO)nc4)cccc32)CC1 , please.
Reply | 4.72

====

target-under-test: OGG1 (Homo sapiens (Human))
Please assign No whenever IC50 is at or above 60 nM, and Yes whenever it is below.

Ask | Please let me know if Cc1cccc2c1[nH]c(=O)n2C1CCN(C(=O)Nc2ccc(Cl)cc2)CC1 shows IC50 below 60 nM.
Reply | No

Ask | Please let me know if COc1cc(NC(=O)[C@H]2CC[C@@H](n3c(=O)[nH]c4c(C(=O)N5CCNC(C(F)(F)F)C5)cccc43)CC2)ccc1C (stereo partly drawn) shows IC50 below 60 nM.
Reply | No

Ask | Please let me know if CNCCN(C)c1cccc2c1[nH]c(=O)n2[C@H]1CC[C@@H](C(=O)Nc2ccc(C)c(OC)c2)CC1 shows IC50 below 60 nM.
Reply | Yes

Ask | Please let me know if COc1ccc(NC(=O)N2CCC(n3c(=O)[nH]c4cc(C)ccc43)CC2)cc1Cl shows IC50 below 60 nM.
Reply | No

Ask | Please let me know if COc1cc(NC(=O)[C@H]2CC[C@@H](n3c(=O)[nH]c4c(N5Cc6cn[nH]c6C5)cccc43)CC2)ccc1C shows IC50 below 60 nM.
Reply | Yes

Ask | Please let me know if COc1cccc2c1[nH]c(=O)n2C1CCN(C(=O)Nc2ccc(Cl)cc2)CC1 shows IC50 below 60 nM.
Reply | No

Ask | Please let me know if COc1cc(NC(=O)[C@H]2CC[C@@H](n3c(=O)[nH]c4c(NC(=O)CN)cccc43)CC2)ccc1C shows IC50 below 60 nM.
Reply | Yes

Ask | Please let me know if COc1cc(NC(=O)[C@H]2CC[C@@H](n3c(=O)[nH]c4c(NC(=O)c5cn(C)cn5)cccc43)CC2)ccc1C shows IC50 below 60 nM.
Reply | Yes

====

Tested on: DU145
test-name: Cell viability assay (resazurin)
Format: cell-based
condition-details: Homo sapiens, DU-145, 120 h, Cancer, Prostate carcinoma, five day incubation
metric: EC50 (µM)
Numbers only; they are read as µM.

Ask | Recorded EC50 of O=C(Nc1ccc(Cl)c(Cl)c1)N1CCC(n2c(=O)[nH]c3c(-c4ccc(CO)nc4)cccc32)CC1 , please.
Reply | 11

Ask | Recorded EC50 of O=C(Nc1ccc(I)cc1)N1CCC(n2c(=O)[nH]c3c(Br)cccc32)CC1 , please.
Reply | 13

Ask | Recorded EC50 of Cc1cc(NC(=O)N2CCC(n3c(=O)[nH]c4c(Br)cccc43)CC2)ccc1I , please.
Reply | 3.1

====

The following are reported IC50 results, target or system OGG1 (Homo sapiens (Human), UniProt O15527).

Ask | API: value(readout=IC50, system=OGG1 (Homo sapiens (Human), UniProt O15527)) for record CC(=O)Nc1cccc2c1[nH]c(=O)n2[C@H]1CC[C@@H](C(=O)Nc2ccc3[nH]ncc3c2)CC1
Reply | 759 nM

Ask | API: value(readout=IC50, system=OGG1 (Homo sapiens (Human), UniProt O15527)) for record COc1ccc(NC(=O)N2CCC(n3c(=O)[nH]c4c(C)ccnc43)CC2)cc1Cl
Reply | 8890 nM

Ask | API: value(readout=IC50, system=OGG1 (Homo sapiens (Human), UniProt O15527)) for record COc1ccc(NC(=O)N2CCC(n3c(=O)[nH]c4c(F)cccc43)CC2)cc1Cl
Reply | 4790 nM

Ask | API: value(readout=IC50, system=OGG1 (Homo sapiens (Human), UniProt O15527)) for record O=c1[nH]c2c(Br)cccc2n1[C@H]1CC[C@@H](C(=O)Nc2ccc(Cl)cc2)CC1
Reply | 72 nM

Ask | API: value(readout=IC50, system=OGG1 (Homo sapiens (Human), UniProt O15527)) for record O=C(Nc1ccc(I)cc1)N1CCCC(n2c(=O)[nH]c3c(Br)cccc32)CC1 (centres unmarked)
Reply | 502 nM

Ask | API: value(readout=IC50, system=OGG1 (Homo sapiens (Human), UniProt O15527)) for record COc1cc(NC(=O)[C@H]2CC[C@@H](n3c(=O)[nH]c4c(NCCN(C)C)cccc43)CC2)ccc1C
Reply | 27.5 nM

Ask | API: value(readout=IC50, system=OGG1 (Homo sapiens (Human), UniProt O15527)) for record O=c1[nH]c2c(Br)cccc2n1[C@H]1CC[C@@H](C(=O)Nc2ccc(C(F)(F)F)c(F)c2)CC1
Reply | 2030 nM

Ask | API: value(readout=IC50, system=OGG1 (Homo sapiens (Human), UniProt O15527)) for record COc1cc(NC(=O)[C@H]2CC[C@@H](n3c(=O)[nH]c4c(Nc5ncccn5)cccc43)CC2)ccc1C
Reply | 74.5 nM
